pIC50 for assorted molecules
- Tested on: B-Raf^V600E mutant A375 melanoma cell
- assay.overview: Cell proliferation assay (CELLTITER 96), A375
- Assay type: cell-based
- condition.label: Homo sapiens, A-375; A375, 72 hours; read-out: Cytotoxicity (IC50 Ranking) A375 (B-Raf^V600E)
pIC50: −log10 of the molar value.

molecule | readout.value
CCCS(=O)(=O)Nc1ccc(F)c(Nc2ccc3ncc(OCCN4CCOCC4)nc3c2[N+](=O)[O-])c1F [compound 6] | > 6.52
CCOc1cnc2ccc(Nc3cc(NS(C)(=O)=O)ccc3F)c(C#N)c2n1 [compound 27] | 5.00 to 6.00
CCCS(=O)(=O)Nc1ccc(F)c(Nc2ccc3ncc(Nc4c(F)ccc(NS(=O)(=O)CCC)c4F)nc3c2)c1F [compound 1] | 5.00 to 6.00
CCCS(=O)(=O)Nc1ccc(F)c(Nc2ccc3ncc(Nc4cccnc4)nc3c2)c1F [compound 12] | 5.00 to 6.00
CCCS(=O)(=O)Nc1ccc(C)c(Nc2ccc3ncc(OC)nc3c2C#N)c1 [compound 40] | 5.00 to 6.00

Query (molecule): CCCS(=O)(=O)Nc1ccc(F)c(Nc2ccc3ncc(N4CCOCC4)nc3c2C#N)c1 [compound 23] ; field requested: pIC50
> 6.52

Entry CCCS(=O)(=O)Nc1ccc(F)c(Nc2ccc3ncc(NC)nc3c2C#N)c1F [compound 20] : reported pIC50 = ?
> 6.52

Need pIC50 of COc1cnc2ccc(Nc3c(F)ccc(NS(=O)(=O)c4ccccc4)c3Cl)c(C#N)c2n1 [compound 47] , thanks.
> 6.52

GET /values?readout=pIC50&item= N#Cc1c(Nc2c(F)ccc(NS(=O)(=O)CCCF)c2F)ccc2ncc(N3CCOCC3)nc12 [compound 33]
> 6.52

Item CCOc1cnc2ccc(Nc3c(F)ccc(NS(=O)(=O)CCCF)c3F)c(C#N)c2n1 [compound 34] has what recorded pIC50?
> 6.52

Bench note: what pIC50 did CCOc1cnc2ccc(Nc3cc(NS(=O)(=O)c4ccccc4)ccc3F)c(C#N)c2n1 [compound 24] show?
6.00 to 6.52

* * *

- experimental.system: C-Raf kinase (Homo sapiens, UniProt P04049)
- Construct: purchased Upstate Biotechnology
- Sequence (P04049 whole entry): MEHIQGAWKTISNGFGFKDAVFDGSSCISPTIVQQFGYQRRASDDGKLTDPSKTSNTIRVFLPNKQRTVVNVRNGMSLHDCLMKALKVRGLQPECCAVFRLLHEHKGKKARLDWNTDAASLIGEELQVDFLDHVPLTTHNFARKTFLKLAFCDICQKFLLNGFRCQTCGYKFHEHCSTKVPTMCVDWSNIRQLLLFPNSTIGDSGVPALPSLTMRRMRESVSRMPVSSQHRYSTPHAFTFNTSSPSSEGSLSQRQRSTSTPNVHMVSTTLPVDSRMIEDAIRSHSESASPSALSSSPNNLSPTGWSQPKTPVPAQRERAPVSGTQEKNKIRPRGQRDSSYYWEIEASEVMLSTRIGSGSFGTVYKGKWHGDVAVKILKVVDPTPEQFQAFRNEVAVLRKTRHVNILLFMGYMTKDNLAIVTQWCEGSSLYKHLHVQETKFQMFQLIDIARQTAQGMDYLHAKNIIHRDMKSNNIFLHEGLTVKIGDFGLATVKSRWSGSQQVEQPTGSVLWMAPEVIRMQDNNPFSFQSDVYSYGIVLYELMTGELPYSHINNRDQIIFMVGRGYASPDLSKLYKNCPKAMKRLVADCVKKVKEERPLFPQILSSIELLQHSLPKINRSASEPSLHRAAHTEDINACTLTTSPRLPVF
- assay.overview: C-Raf kinase assay ([33P] incorporation into MEK1 K97R)
- Assay type: biochemical
- condition.label: recombinant C-Raf, 8 μM ATP, 30 min, 30° C.; read-out: IC50 ranking against C-Raf kinase
Reported IC50 values follow for various compounds

# count of solved cases: 5
smiles.notation | recorded.endpoint | readout.value
COc1cnc2ccc(Nc3c(F)ccc(NS(=O)(=O)c4ccccc4)c3Cl)c(C#N)c2n1 | IC50 | < 300 nM
CCCS(=O)(=O)Nc1ccc(F)c(Nc2ccc3ncc(OCC)nc3c2C#N)c1 | IC50 | < 300 nM
CCCS(=O)(=O)Nc1ccc(F)c(Nc2ccc3ncc(OCCN4CCOCC4)nc3c2[N+](=O)[O-])c1F | IC50 | < 300 nM
CN(C)c1cnc2ccc(Nc3cc(NS(=O)(=O)c4ccccc4)ccc3F)c(C#N)c2n1 | IC50 | < 300 nM
CCCS(=O)(=O)Nc1ccc(F)c(Nc2ccc3ncc(Nc4ccc(F)cc4F)nc3c2)c1F | IC50 | < 300 nM

Data request, read-out IC50, for "CCCS(=O)(=O)Nc1cccc(Nc2ccc3ncc(OC)nc3c2C#N)c1C"
< 300 nM

Which IC50 value belongs to "N#Cc1c(Nc2c(F)ccc(NS(=O)(=O)CCCF)c2F)ccc2ncc(N3CCOCC3)nc12" ?
< 300 nM

Can you look up the measured IC50 of "CCCS(=O)(=O)Nc1ccc(F)c(Nc2ccc3ncc(OC)nc3c2C(=O)O)c1F" for me?
300 to 1000 nM

Which IC50 value belongs to "CCCS(=O)(=O)Nc1cccc(Nc2ccc3ncc(N4CCOCC4)nc3c2C#N)c1C" ?
< 300 nM

Given the compound "CCCS(=O)(=O)Nc1cccc(Nc2ccc3ncc(OC)nc3c2C#N)c1C#N" , what is its reported IC50?
< 300 nM

What value of measured IC50 is listed for "CCCS(=O)(=O)Nc1ccc(F)c(Nc2ccc3ncc(OC)nc3c2C#N)c1Cl" ?
< 300 nM

Query (compound): "CCCS(=O)(=O)Nc1ccc(F)c(Nc2ccc3ncc(OC)nc3c2[N+](=O)[O-])c1F" ; field requested: IC50
< 300 nM

Which value of IC50 has been reported for "CCCS(=O)(=O)Nc1ccc(F)c(Nc2ccc3ncc(NC)nc3c2C#N)c1F" in the records?
< 300 nM

Name the reported IC50 value associated with the compound "CCCS(=O)(=O)Nc1ccc(F)c(Nc2ccc3ncc(N4CCOCC4)nc3c2C#N)c1Cl"
< 300 nM

Suppose we examine the compound "CCCS(=O)(=O)Nc1c(F)ccc(Nc2ccc3ncc(OC)nc3c2C#N)c1F" ; what IC50 value has been reported?
< 300 nM

Any idea what IC50 was measured for "CCCS(=O)(=O)Nc1ccc(C)c(Nc2ccc3ncc(N4CCOCC4)nc3c2C#N)c1" ?
1000 to 10000 nM

Return reported IC50; argument: "CCCS(=O)(=O)N(C)c1ccc(F)c(Nc2ccc3ncc(OC)nc3c2C#N)c1F"
< 300 nM

What does the record list as IC50 for "CCCS(=O)(=O)Nc1ccc(F)c(Nc2ccc3ncc(NC(=O)C4CC4)nc3c2)c1F" ?
300 to 1000 nM

* * *

- experimental.system: B-Raf kinase (Homo sapiens)
- Sequence (P15056 whole entry): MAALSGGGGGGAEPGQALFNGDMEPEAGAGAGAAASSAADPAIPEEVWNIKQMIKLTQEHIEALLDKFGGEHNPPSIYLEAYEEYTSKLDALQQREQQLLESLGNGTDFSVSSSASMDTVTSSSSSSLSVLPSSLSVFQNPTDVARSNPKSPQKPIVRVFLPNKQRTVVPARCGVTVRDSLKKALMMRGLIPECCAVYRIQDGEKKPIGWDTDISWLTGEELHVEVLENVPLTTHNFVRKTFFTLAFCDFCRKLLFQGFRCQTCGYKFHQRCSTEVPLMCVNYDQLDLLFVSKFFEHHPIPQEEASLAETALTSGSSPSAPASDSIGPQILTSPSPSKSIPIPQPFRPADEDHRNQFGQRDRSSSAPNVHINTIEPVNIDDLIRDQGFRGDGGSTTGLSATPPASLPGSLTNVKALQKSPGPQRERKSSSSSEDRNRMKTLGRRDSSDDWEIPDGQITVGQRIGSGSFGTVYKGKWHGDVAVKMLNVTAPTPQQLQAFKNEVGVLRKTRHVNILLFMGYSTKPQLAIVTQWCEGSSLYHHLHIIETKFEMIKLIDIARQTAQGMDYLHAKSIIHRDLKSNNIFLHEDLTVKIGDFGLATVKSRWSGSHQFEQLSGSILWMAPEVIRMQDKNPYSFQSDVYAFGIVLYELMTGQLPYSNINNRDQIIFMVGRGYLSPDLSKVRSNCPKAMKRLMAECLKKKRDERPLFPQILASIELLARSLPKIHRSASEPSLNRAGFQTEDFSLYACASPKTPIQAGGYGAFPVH
- assay.overview: B-Raf kinase assay ([33P] incorporation into MEK1 K97R)
- condition.label: recombinant B-Raf, 8 μM ATP, 30 min, 30° C.; read-out: IC50 ranking against B-Raf kinase
recorded.endpoint: IC50

Here is how some compounds turned out for IC50.
smiles.notation | recorded.endpoint | readout.value
CCCS(=O)(=O)Nc1ccc(F)c(Nc2ccc3ncc(OC)nc3c2C#N)c1Cl | IC50 | < 300 nM
CCCS(=O)(=O)Nc1ccc(F)c(Nc2ccc3ncc(OCCN(C)C)nc3c2[N+](=O)[O-])c1F | IC50 | < 300 nM
CCCS(=O)(=O)Nc1ccc(F)c(Nc2ccc3ncc(OC)nc3c2C#N)c1F | IC50 | < 300 nM
N#Cc1c(Nc2c(F)ccc(NS(=O)(=O)CCCF)c2F)ccc2ncc(N3CCOCC3)nc12 | IC50 | < 300 nM
N#Cc1c(Nc2c(F)ccc(NS(=O)(=O)c3ccccc3)c2Cl)ccc2ncc(N3CCOCC3)nc12 | IC50 | < 300 nM
CS(=O)(=O)Nc1ccc(F)c(Nc2ccc3ncc(N4CCOCC4)nc3c2C#N)c1 | IC50 | 1000 to 10000 nM

Looking for the measured IC50 of "CCCS(=O)(=O)Nc1ccc(F)c(Nc2ccc3ncc(NC)nc3c2C#N)c1F" , can you help?
< 300 nM

Entry "CCCS(=O)(=O)Nc1ccc(F)c(Nc2ccc3ncc(Nc4c(F)ccc(NS(=O)(=O)CCC)c4F)nc3c2)c1F" : reported IC50 = ?
< 300 nM

* * *

- experimental.system: C-Raf kinase (Homo sapiens)
- assay.overview: C-Raf kinase assay ([33P] incorporation into MEK1 K97R)
- condition.label: recombinant C-Raf, 8 μM ATP, 30 min, 30° C.; read-out: IC50 ranking against C-Raf kinase
recorded.endpoint: IC50

These solved cases illustrate the format of a correct answer.
molecule | IC50
CCCS(=O)(=O)Nc1ccc(C)c(Nc2ccc3ncc(OC)nc3c2C#N)c1 [compound 40] | 300 to 1000 nM
CCCS(=O)(=O)Nc1ccc(F)c(Nc2ccc3ncc(N4CCOCC4)nc3c2C#N)c1F [compound 19] | < 300 nM
CCCS(=O)(=O)Nc1cc(Nc2ccc3ncc(OC)nc3c2C#N)ccc1C [compound 45] | 1000 to 10000 nM

Field request: IC50 | item: COc1cnc2ccc(Nc3c(F)ccc(NS(=O)(=O)CCCF)c3F)c([N+](=O)[O-])c2n1 [compound 5]
< 300 nM

* * *

- experimental.system: B-Raf^V600E kinase (Homo sapiens, UniProt P15056, V600E)
- Sequence (P15056 whole entry V600E): as the sequence (P15056 whole entry) above, with V600E counted along it
- assay.overview: B-Raf V600E kinase assay ([33P] incorporation into MEK1 K97R)
- condition.label: recombinant B-Raf^V600E, 8 μM ATP, 30 min, 30° C.; read-out: IC50 ranking against B-Raf^V600E kinase
recorded.endpoint: IC50

smiles.notation | IC50
CCCS(=O)(=O)Nc1c(F)ccc(Nc2ccc3ncc(OC)nc3c2C#N)c1F | < 300 nM
COc1cnc2ccc(Nc3c(F)ccc(NS(C)(=O)=O)c3F)c([N+](=O)[O-])c2n1 | 300 to 1000 nM
CCCS(=O)(=O)Nc1ccc(F)c(Nc2ccc3ncc(OC)nc3c2[N+](=O)[O-])c1F | < 300 nM
CCCS(=O)(=O)Nc1cccc(Nc2ccc3ncc(OC)nc3c2C#N)c1C | 300 to 1000 nM
CCCS(=O)(=O)N(CC)c1ccc(F)c(Nc2ccc3ncc(OC)nc3c2C#N)c1F | < 300 nM

Item: "CCCS(=O)(=O)Nc1ccc(F)c(Nc2ccc3ncc(OCCOC)nc3c2[N+](=O)[O-])c1F" Test system: B-Raf^V600E kinase (Homo sapiens, UniProt P15056, V600E) Read-out: IC50 Value: ?
< 300 nM

State its IC50 on B-Raf^V600E kinase (Homo sapiens, UniProt P15056, V600E): "CCCS(=O)(=O)Nc1ccc(F)c(Nc2ccc3ncc(Nc4ccccc4F)nc3c2)c1F"
< 300 nM

Give B-Raf^V600E kinase (Homo sapiens, UniProt P15056, V600E) IC50 for "CCCS(=O)(=O)Nc1ccc(F)c(Nc2ccc3ncc(N4CCOCC4)nc3c2C#N)c1Cl"
< 300 nM

What measured IC50 is associated with "COc1cnc2ccc(Nc3cc(NS(=O)(=O)c4ccccc4)ccc3F)c(C#N)c2n1" on B-Raf^V600E kinase (Homo sapiens, UniProt P15056, V600E)?
< 300 nM

Recorded IC50 for "CCCS(=O)(=O)Nc1ccc(F)c(Nc2ccc3ncc(OCC)nc3c2C#N)c1" with B-Raf^V600E kinase (Homo sapiens, UniProt P15056, V600E), please?
< 300 nM
